Data provenance is paper PMC6073568.

molecular target: LXRα (Homo sapiens, UniProt Q13133); construct: CMX-GAL4N-hLXRα-LBD; expressed in transfected cells; host or cells: HEK293; experiment: LXRα reporter gene assay in HEK293; type: cell-based; details: read-out: LXRα antagonistic activity (IC50)
Sequence (Q13133 209-447 limits assumed): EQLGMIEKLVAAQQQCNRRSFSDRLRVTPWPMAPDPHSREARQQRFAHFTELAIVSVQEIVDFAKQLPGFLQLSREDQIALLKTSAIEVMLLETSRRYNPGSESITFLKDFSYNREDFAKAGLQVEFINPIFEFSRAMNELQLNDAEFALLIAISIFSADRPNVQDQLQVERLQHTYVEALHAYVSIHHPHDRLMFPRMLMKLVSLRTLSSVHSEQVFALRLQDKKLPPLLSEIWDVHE
RECORDED_ENDPOINT: IC50

CCCCn1c(=O)c2cc(OC)ccc2c2cc(C(O)(C(F)(F)F)C(F)(F)F)cc(OC)c21
> 10 µM
CCCCn1c(=O)c2ccccc2c2c(OC)c(C(O)(C(F)(F)F)C(F)(F)F)ccc21
> 20 µM
CCCCn1c(=O)c2ccccc2c2cc(C(O)(C(F)(F)F)C(F)(F)F)c3c(c21)OCO3
> 20 µM

# context switch: different molecule, same IC50
[ask] // Input: CCCCn1c(=O)c2ccccc2c2cc(CO)ccc21 . Output its IC50 only.
[reply] > 20 µM

* * *

target: AR (Homo sapiens); test: AR reporter gene assay in HEK293; format: cell-based; conditions: reporter gene assay, HEK293; agonist dihydrotestosterone 0.3 nM; read-out: AR antagonistic activity (IC50), AR reporter gene
Sequence (P10275 whole entry): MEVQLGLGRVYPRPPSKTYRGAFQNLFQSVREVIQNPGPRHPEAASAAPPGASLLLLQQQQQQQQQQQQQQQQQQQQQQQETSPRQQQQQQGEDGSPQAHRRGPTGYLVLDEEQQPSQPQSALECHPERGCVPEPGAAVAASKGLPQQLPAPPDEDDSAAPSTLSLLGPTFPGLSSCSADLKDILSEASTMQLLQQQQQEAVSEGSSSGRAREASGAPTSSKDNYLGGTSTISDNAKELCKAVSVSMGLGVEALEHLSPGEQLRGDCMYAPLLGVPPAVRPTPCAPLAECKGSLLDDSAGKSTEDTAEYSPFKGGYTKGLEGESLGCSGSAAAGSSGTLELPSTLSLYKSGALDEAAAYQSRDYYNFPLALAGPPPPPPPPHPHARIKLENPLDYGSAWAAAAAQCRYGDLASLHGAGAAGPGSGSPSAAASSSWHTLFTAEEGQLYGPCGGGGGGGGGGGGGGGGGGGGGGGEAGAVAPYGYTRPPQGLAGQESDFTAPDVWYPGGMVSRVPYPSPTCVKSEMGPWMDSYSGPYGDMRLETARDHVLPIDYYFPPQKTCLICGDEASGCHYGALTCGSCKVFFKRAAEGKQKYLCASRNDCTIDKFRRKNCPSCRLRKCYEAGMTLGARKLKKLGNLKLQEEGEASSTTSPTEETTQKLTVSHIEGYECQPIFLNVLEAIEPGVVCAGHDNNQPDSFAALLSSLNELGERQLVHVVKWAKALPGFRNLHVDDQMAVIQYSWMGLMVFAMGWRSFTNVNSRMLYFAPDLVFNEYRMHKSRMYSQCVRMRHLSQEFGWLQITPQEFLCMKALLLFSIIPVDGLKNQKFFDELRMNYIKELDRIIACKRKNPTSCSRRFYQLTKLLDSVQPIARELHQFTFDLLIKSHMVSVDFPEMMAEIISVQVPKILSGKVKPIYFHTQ
pIC50: −log10 of the molar value.
RECORDED_ENDPOINT: pIC50

Consider the reported pIC50 for these molecules:
CCCCn1c(=O)c2c(OC)cccc2c2cc(C(O)(C(F)(F)F)C(F)(F)F)ccc21 [Compound 21]
5.03
O=c1[nH]c2ccc(C(O)(C(F)(F)F)C(F)(F)F)cc2c2cccc(F)c12 [Compound 33]
6.34
CCCCn1c(=O)c2ccccc2c2cc(CO)ccc21 [Compound 11]
5.02
O=c1[nH]c2ccc(C(O)(C(F)(F)F)C(F)(F)F)cc2c2cc(F)ccc12 [Compound 35]
6.04
Cc1cc(C(O)(C(F)(F)F)C(F)(F)F)cc2c1[nH]c(=O)c1cc(F)ccc12 [Compound 44]
5.77

[1] CCCCn1c(=O)c2ccccc2c2cc(C(O)(C(F)(F)F)C(F)(F)F)c(OC)cc21 [Compound 19]
[2] O=c1[nH]c2ccc(C(O)(C(F)(F)F)C(F)(F)F)cc2c2ccccc12 [Compound 1]
[3] CCCCn1c(=O)c2ccccc2c2cc(CC)ccc21 [Compound 9]
[ask] Please produce an ascending ranking of these molecules based on pIC50. Give the labels in the order specified.
[reply] 3, 1, 2
(3: 4.72, 1: 5.96, 2: 7.00)

* * *

molecular target: LXRβ (Homo sapiens, UniProt P55055); construct: CMX-GAL4N-hLXRβ-LBD; expressed in transfected cells; host or cells: HEK293; test: LXRβ reporter gene assay in HEK293; type: cell-based; conditions: read-out: LXRβ antagonistic activity (IC50)
Sequence (P55055 222-460 limits assumed): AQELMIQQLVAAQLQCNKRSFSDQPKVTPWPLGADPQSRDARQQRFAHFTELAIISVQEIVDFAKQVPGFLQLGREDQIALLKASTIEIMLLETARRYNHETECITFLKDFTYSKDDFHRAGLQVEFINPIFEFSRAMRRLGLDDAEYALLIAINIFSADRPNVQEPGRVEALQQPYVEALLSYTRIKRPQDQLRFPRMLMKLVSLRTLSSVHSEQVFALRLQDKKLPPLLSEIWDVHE
pIC50: −log10 of the molar value.
RECORDED_ENDPOINT: pIC50

CCCCn1c(=O)c2cc(OC)ccc2c2cc(C(O)(C(F)(F)F)C(F)(F)F)cc(OC)c21
< 5.00
CCCCn1c(=O)c2c(OC)cc(OC)cc2c2cc(C(O)(C(F)(F)F)C(F)(F)F)ccc21
< 4.70
CCCCCCCCCn1c(=O)c2ccccc2c2cc(C(O)(C(F)(F)F)C(F)(F)F)ccc21
< 4.70

# context switch: different compound, same pIC50
[ask] // Input: CCCCn1c(=O)c2ccccc2c2c(OC)c(C(O)(C(F)(F)F)C(F)(F)F)ccc21 . Output its pIC50 only.
[reply] < 4.70
